system: T1, human GFRAL (analyte in Biacore assays) (human, UniProt Q6UXV0 19-351, limits assumed)
T1 construct: injected in solution over captured antibody; also called hGFRAL
T1 sequence: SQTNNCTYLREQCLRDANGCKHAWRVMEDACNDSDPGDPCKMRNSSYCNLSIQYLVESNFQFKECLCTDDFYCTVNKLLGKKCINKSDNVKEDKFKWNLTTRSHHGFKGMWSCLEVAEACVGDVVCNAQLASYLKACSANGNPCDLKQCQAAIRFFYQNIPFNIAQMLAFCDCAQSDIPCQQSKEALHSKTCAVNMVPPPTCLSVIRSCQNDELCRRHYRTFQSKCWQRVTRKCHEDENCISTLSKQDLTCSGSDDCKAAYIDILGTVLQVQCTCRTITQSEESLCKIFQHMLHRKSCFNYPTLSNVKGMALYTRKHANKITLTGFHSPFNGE
assay-method-text: Biacore SPR, antibody captured, GFRAL injected
pKd: −log10 of the molar value.
What pKd was measured for each of the following?

Task: Which value of pKd has been reported for antibody designated 6G9 (antibody, V domains shown, mouse hybridoma monoclonal) VH: QVQLHQPGAELVKPGASVKLSCKTSGYTFTSYWMQWVKQRPGQGLEWIGEIDPSDSYTNYNQKFKGKATLTVDTSSTTAYMQLSSLTSEDSAVYYCARPLDRSAYYFDYWGQGTTLTVSS VL: DIVLTQSPASLAVSLGQRATISCRASESVDFSGNSFMHWYQQKPGQPPKLLIYRASNLDSGIPARFSGVGSRTDFTLTINPVEADDVATYYCQQSNEDPYTFGGGTKLEIE in the records?
Output: > 10.00

Task: What do you get for antibody designated 2A9 (antibody, V domains shown, mouse hybridoma monoclonal) VH: EVKLVESGGGLVKPGGSLKLSCAASGFTFSTYAMSWVRQTPEKRLEWVASITSGGTTYYTDSVKGRFTISRDNARNILYLQMSSLRSEDTAMYYCARDGNFYYYGMDYWGQGTSVTVSS VL: DIVMTQSQKFMSTSVGDRVSITCKASQNVGTAVAWYQQKPGQSPKILIYSASNRFTGVPDRFTGSGSGTDFTLTISNMQSEDLADYFCQQYSSYFTFGGGTKLELK ?
Output: 9.60

Task: What do you get for antibody designated 8C10 (antibody, V domains shown, mouse hybridoma monoclonal) VH: QVQLQQSGVELARPGAAVKLSCKASGYTFANYGLTWVKQRTGQGLEWIGEIYPGSGHTHYNEDFKGKATLTADRSSSTAYMELRSLTSEDSAVYFCARRIQLLLPVGGFVYWGQGTLVTVSA VL: DFVLTQSPATLSVTPGDSVSLSCRASQSISNNLHWYQQKSHESPRLLIKYASQSISGIPSRFSGSGSGTDFTLSINSVETEDFGVYFCQQSNSWPHTFGGGTKLEIK ?
Output: > 10.00

Task: What do you get for antibody designated 25M22 (antibody, V domains shown, mouse hybridoma monoclonal) VH: QVQLQQSGPDLVKPGASVKISCKASGYTFTSYWVNWMKQRPGKGLEWIGRIYPGDGDTNYNGKFKGKATLTADKSSSTAYMQLSSLTSEDSAVYFCARAYLLRLRRTGYYAMDYWGQGTSVTVSS VL: DVVLTQTPLSLPVNIGDQASISCKSTKSLLNSDEFTYLDWYLQKPGQSPQLLIFLVSNRFSGVPDRFSGSGSGTDFTLKISRVEAEDLGVYYCFQSNYLPYTFGGGTKLEIK ?
Output: > 10.00

Task: What do you get for antibody designated 1B3 (antibody, V domains shown, mouse hybridoma monoclonal) VH: QVHLQQPGAELVKPGASVKLSCKASGFTFTGYNINWVRLRPEQGLEWIGWIFPGDDNAKYNEKFKGKATLTTDKSSNTAYMQLSRLTSEDSAVYFCARTPVLSNYFDYWGQGTTLTVSS VL: DIQMTQSPSSLSASLGGKVTITCKASQDISKYISWYQHKPGKSPRLLIHYTSTLQPGIPSRFSGSGSGRDYSFSISNLEPEDIATYYCLQYDNLYTFGGGTKLEIK ?
Output: > 10.00
